Assay: Cytotoxicity against mouse NCTC-929 cells assessed as cell viability after 48 hrs by MTT assay
Type: cell-based
Reported Property: CC50 at 48 h (µM)
Report the figure in µM without appending any unit label.

Ask: What measured CC50 at 48 h goes with CCCCOC(=O)c1ccc(O)cc1 [BUTYLPARABEN] ?
Result: 168

Ask: What measured CC50 at 48 h goes with "CCCCCCCC/N=C/c1ccc(O)cc1" ?
Result: 99.2

Ask: What measured CC50 at 48 h goes with CCCCCCCC(O)/C=C/c1ccc(O)cc1 (stereo not drawn) ?
Result: 49.5
